Every entry's value here was drawn from PubChem BioAssay AID1259407.

Tested on: CCRIS mutagenicity, Ames/micronucleus/aberration tests
Test Summary: CCRIS mutagenicity studies
Conditions Used: Test System: AMES SALMONELLA TYPHIMURIUM; Strain/Indicator: TA1537; Metabolic Activation: NONE; Method: PREINCUBATION
The source made the active and inactive calls. The rule behind the calls is not given here.
Select the correct class. Options are active, inactive and nothing else.

Lab log entry: O=C1OC(=O)c2c(Cl)c(Cl)c(Cl)c(Cl)c21 — outcome as called in the assay?
inactive

GET /call?item= CCC(C)c1ccccc1O (stereo not given) returns the recorded outcome of this test.
inactive

I'd appreciate the recorded outcome for CC(O)CCl (stereo not given) from this test.
inactive

Test call, this molecule: CNCCS(=O)(=O)O
inactive

Call for entry CCOS(=O)(=O)OCC :
active

Lab log entry: Cc1cc(-c2ccc(N=C=O)c(C)c2)ccc1N=C=O — outcome as called in the assay?
inactive

// outcome(item) with item = Cc1ccccc1C
inactive

In this assay, the call recorded for O=S(=O)(O)OOS(=O)(=O)O was what?
inactive

Tell me the assay call for CCCC(=O)O please.
inactive

I would be grateful if you could indicate the recorded call for Oc1cc(Cl)c(Cl)c(Cl)c1 .
inactive

Given OCc1ccccc1 , state the outcome it received in this test.
inactive

Can you look up the reported call for Oc1c(Br)c(Br)c(Br)c(Br)c1Br for me?
inactive

What classification did O.[Al+3].[Al+3].[Na+].[Na+].[O-2].[O-2].[O-2].[O-2].[O-2].[O-2].[Si+4] end up with in this test?
inactive

What did the test return for C[n+]1c2ccccc2cc2cc(N)ccc21 ?
active

Short answer needed: outcome of this test for Cc1cc(O)c(C(C)(C)C)cc1Sc1cc(C(C)(C)C)c(O)cc1C ?
inactive

// return assay outcome for CC(C)CCC(C)Nc1ccc(NC(C)CCC(C)C)cc1 (stereo not given)
inactive

Which outcome was entered for the molecule CC(C)NCC(O)c1ccc(O)c(O)c1 (stereo not given) in this test?
inactive

Write down the call the test reported for this molecule. Item: ClC(Br)Br
inactive

Please share the test call associated with N[C@H](Cc1ccccc1)C(=O)O .
inactive

Any idea what this test logged for Fc1c(F)c(F)c(Cl)c(F)c1F ?
inactive

// param item: OCCOCCOCCO ; yields the recorded call
inactive

Hi, do you know how COC(=O)c1ccccc1C(=O)OC came out in this test?
inactive

Could you please tell me the result logged for NC(=Nc1ccccc1)Nc1ccccc1 in this assay?
inactive

What did the test return for CCOCCOC(=O)/C=C/c1ccc(OC)cc1 ?
inactive

Hi team, can someone confirm the assay call for CS(=O)(=O)c1ccc(O)c(N)c1 ?
inactive

Called result for Clc1nc2ccccc2nc1Cl
inactive

Per the records of this test, what outcome belongs to Cc1c(F)c(N2CCNC(C)C2)cc2c1c(=O)c(C(=O)O)cn2C1CC1 (stereo not given) ?
inactive

Tell me the assay call for CC1(C)COC1=O please.
inactive

Please state the recorded outcome for this molecule: ClC(Cl)=C(Cl)Cl
inactive

Outcome logged for O=[N+]([O-])c1cccc(O)c1 in this assay:
inactive

Could you kindly confirm the outcome this assay logged for ClC=C(Cl)Cl ?
inactive

Answer briefly: the call reported for CCCCCCCCCc1ccc(O)cc1 in this assay.
inactive

Recorded test call requested for Cc1ccc(N)cc1
inactive

Record request — test call for CC1(C)CC(N=C=O)CC(C)(CN=C=O)C1 (stereo not given)
inactive

// return assay outcome for N#CCc1ccccc1
inactive

What was the test verdict on [Cl][Cr]([Cl])[Cl] ?
inactive

What classification did CN(C)C(=S)N(C)C end up with in this test?
inactive

Could you please tell me the result logged for O.O.O.O.O.[Cd+2].[Cd+2].[Cl-].[Cl-].[Cl-].[Cl-] in this assay?
inactive

Hello, I am checking results. What call was entered for CCCNCCC ?
inactive

# fetch the recorded call for CCCC(C)(COC(N)=O)COC(=O)NC(C)C (stereo not given) here
inactive

Just curious, what result did [B-] get here?
inactive

GET /call?item= N=C(N)S(=O)O returns the recorded outcome of this test.
inactive

Give the logged outcome of this assay for the following molecule: O=[N+]([O-])c1cc(Cl)ccc1Cl
inactive

Called result for O=C/C=C/c1ccccc1
inactive

What classification did BrCCCCCBr end up with in this test?
inactive

Returns: the outcome recorded for CC(C)c1ccccc1O in this assay.
inactive

For CON , what call appears in the results of this test?
inactive

# fetch the recorded call for ClCC(Cl)CCl here
inactive

Could you please tell me the result logged for CNNCc1ccc(C(=O)NC(C)C)cc1 in this assay?
inactive

Called result for CCCCCCCCCCCC(=O)O
inactive

Could you check what this test reported for NCCCCCCCCCCCC(=O)O ?
inactive

Hey, what did the test say about O=C(O)c1ccccc1O ?
inactive

What outcome does the record of this test show for FC(F)(F)c1cccc(Cl)c1 ?
inactive

Test call for this molecule, please: CC(CO)(CO)CO
inactive

Assay result, entry COC(=O)NC(=S)Nc1ccccc1NC(=S)NC(=O)OC — outcome?
inactive

Please state the recorded outcome for this molecule: OCC(CO)(CBr)CBr
inactive

For this molecule, state the assay outcome: COc1cc(NC(C)CCCN)c2ncccc2c1 (stereo not given)
active

Hey, what did the test say about CC(=O)c1cc(N)ccc1OCC(O)CNC(C)(C)C (stereo not given) ?
inactive

Dear colleague, could you share the recorded outcome for CC1=CC[C@H]2C(C)=CC[C@@H](C(C)C)[C@@H]2C1 when you have a moment?
inactive

Recorded test call requested for CC(C)CN(CC(C)C)CC(C)C
inactive
